Where do the numbers come from? From PubChem BioAssay (NCATS).

- experiment notes: Cell Viability - LYMP1-002 - Assay at 40 hr (AID 994); further: nearly all actives have a fitted effect of over 60% in size
- condition description: LYMP1-002 lymphoblastoid cell viability; series mostly up to 92.2 µM
Results filed as inconclusive are left out. Active and inactive are the calls of the source. The call rests on the fitted dose curve; in most records, active means well fitted cell-killing curve with a large enough effect; inconclusive means small, poorly fitted or top-dose-only effect; inactive means flat fitted curve, though single readings scatter.
property name: outcome

CN(C)CCOC(c1ccccc1)c1ccccc1 (tested in a mixture with another compound)
inactive
Cc1occc(=O)c1O
inactive
CC1=CC(=O)CC(C)(C)C1(O)/C=C/C(C)=C\C(=O)O (stereo not given)
inactive
C=CC(C)(O)CCC=C(C)C (stereo not given)
inactive
COS(C)(=O)=O
inactive

###

- experiment notes: Confirmation and Secondary Assay for Modulators of Hemoglobin Beta Chain Splicing at IVS2 705 locus (AID 930);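 further: HeLa cells stably expressing the EGFP-705 splicing reporter; GFP fluorescence per well restored by corrected splicing of the IVS2-705 intron in EGFP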
- condition description: HeLa EGFP-705 splicing reporter, GFP fluorescence, 48 h; series mostly up to 38.3 µM
The source made the active and inactive calls. Calls come from the whole dose curve; as a rule, active = well fitted activation curve with a large enough effect; inconclusive = small, poorly fitted or top-dose-only effect; inactive = flat fitted curve, though single readings scatter.
property name: outcome

COC(=O)c1c(C)cc(OC(=O)c2c(C)cc(O)c(C=O)c2O)c(C)c1O
inactive
CN(C)Cc1ccccc1-c1ccc2ncnc(N(C)Cc3ccco3)c2c1
inactive
Cc1noc(C)c1-c1nc(N2CCOCC2)c2ccccc2n1
inactive
COC(=O)C1OC(=O)C2OC23[C@]2(C)C(O)CC4C(C)(C)C(OC(C)=O)CC(OC(C)=O)[C@@]4(C)C2CC[C@@]13C (stereo not given in full)
inactive
COc1ccc(CNc2nc(-c3ccoc3)nc3ccccc23)c(OC)c1
inactive
CN(C)Cc1ccccc1-c1cc(N(C)C)ncn1
inactive
c1ccc(CNc2ccnc(-c3ccc4c(c3)OCO4)n2)cc1
inactive
COc1ccc(-c2cc(=O)c3c(OC)c(OC)c(OC)c(OC)c3o2)cc1OC
inactive
CN(Cc1ccco1)c1ccnc(-c2cccc(NS(C)(=O)=O)c2)n1
inactive
C=C[C@](C)(O)CCC1C(=C)CC(OC(C)=O)C2C(C)(C)CCCC12C (stereo not given in full)
inactive
c1ccc2c(Nc3ccncc3)nc(-c3ccoc3)nc2c1
inactive
Cc1cnc(CNc2ncncc2-c2ccccc2CN(C)C)cn1
inactive
Cc1cnc(CNc2ncnc3ccc(-c4cccc(C#N)c4)cc23)cn1
inactive
N#Cc1cccc(-c2cc(-n3ccnc3)ncn2)c1
inactive
COc1ccccc1-c1nc(NCc2cnc(C)cn2)c2ccccc2n1
inactive
COc1ccccc1-c1nccc(NCc2cccc(C)c2)n1
inactive
Cc1cccc(CNc2nc(-c3ccccc3CN(C)C)nc3ccccc23)c1
inactive
Cc1noc(C)c1-c1cncnc1NC1CC1
inactive
COc1ccccc1CNc1ncnc2ccc(-c3cccnc3)cc12
inactive
Cc1cccc(CNc2nc(-c3c(C)noc3C)nc3ccccc23)c1
inactive
NC(Cc1ccc(O)c(O)c1)C(=O)O (stereo not given)
inactive
Cc1noc(C)c1-c1nccc(N2CCNCC2)n1
inactive
CN1CCN(c2nc(-c3cccc(NS(C)(=O)=O)c3)nc3ccccc23)CC1
inactive
c1ccc(Nc2ncnc3ccc(-c4ccc5c(c4)OCO5)cc23)cc1
inactive
Cc1cnc(CNc2ccnc(-c3ccc(N(C)C)cc3)n2)cn1
inactive
FC(F)(F)c1ccccc1-c1nccc(NCc2ccccc2)n1
inactive
Cc1cnc(CNc2cc(-c3ccoc3)ncn2)cn1
inactive
CC1CC2C3CCC4=CC(=O)C=C[C@@]4(C)[C@]3(F)C(O)C[C@]2(C)[C@]1(O)C(=O)CO (stereo not given in full)
inactive
CC1(C)SC2C(NC(=O)Cc3ccccc3)C(=O)N2C1C(=O)O (stereo not given)
inactive
COc1cc(C)c2c(c1C=O)Oc1c(c(C)c(O)c3c1C(O)OC3=O)OC2=O (stereo not given)
inactive
Cc1cccc(CNc2ncnc3ccc(-c4c(C)noc4C)cc23)c1
inactive
COc1cc2c(cc1OC)C1Cc3ccc(OC)c(OC)c3CN1CC2 (stereo not given)
inactive
CN(C)C(=O)c1ccc(-c2ccc3ncnc(NCc4cccnc4)c3c2)cc1
inactive
Cc1cnc(CNc2nc(-c3ccc(N(C)C)cc3)nc3ccccc23)cn1
inactive
COc1ccccc1CNc1ncncc1-c1ccccc1C
inactive
CC(=O)NCCNc1ncnc2ccc(-c3ccc(C(=O)N(C)C)cc3)cc12
inactive
CN1CCN(c2ccnc(-c3ccccc3C(F)(F)F)n2)CC1
inactive
C=C1C2CC[C@@]3(C)C(c4ccoc4)OC(=O)C[C@@]13OC1CC(O)C(C)(C)C(CC(=O)OC)[C@@]12C (stereo not given in full)
inactive
Cc1cnc(CNc2nc(-c3ccc(C(=O)N(C)C)cc3)nc3ccccc23)cn1
inactive
Cc1cccc(CNc2ccnc(-c3cccc(NS(C)(=O)=O)c3)n2)c1
inactive
Cc1cccc(CNc2cc(-c3ccc(C(=O)N(C)C)cc3)ncn2)c1
inactive
CS(=O)(=O)Nc1cccc(-c2nc(N3CCOCC3)c3ccccc3n2)c1
inactive
Cc1cccc(CNc2cc(-c3ccc(N(C)C)cc3)ncn2)c1
inactive
Cc1ccccc1-c1nc(NCCN2CCOCC2)c2ccccc2n1
inactive
O=c1c(-c2ccccc2)coc2cc(O)cc(O)c12
inactive
